target: NAD-dependent deacetylase Sirtuin 1 (human, UniProt Q96EB6); test: primary screen, delta tm; parameters: single well (n = 1, as 'the same TSA'); conditions: 10 µM
Sequence (Q96EB6 2-747 limits assumed): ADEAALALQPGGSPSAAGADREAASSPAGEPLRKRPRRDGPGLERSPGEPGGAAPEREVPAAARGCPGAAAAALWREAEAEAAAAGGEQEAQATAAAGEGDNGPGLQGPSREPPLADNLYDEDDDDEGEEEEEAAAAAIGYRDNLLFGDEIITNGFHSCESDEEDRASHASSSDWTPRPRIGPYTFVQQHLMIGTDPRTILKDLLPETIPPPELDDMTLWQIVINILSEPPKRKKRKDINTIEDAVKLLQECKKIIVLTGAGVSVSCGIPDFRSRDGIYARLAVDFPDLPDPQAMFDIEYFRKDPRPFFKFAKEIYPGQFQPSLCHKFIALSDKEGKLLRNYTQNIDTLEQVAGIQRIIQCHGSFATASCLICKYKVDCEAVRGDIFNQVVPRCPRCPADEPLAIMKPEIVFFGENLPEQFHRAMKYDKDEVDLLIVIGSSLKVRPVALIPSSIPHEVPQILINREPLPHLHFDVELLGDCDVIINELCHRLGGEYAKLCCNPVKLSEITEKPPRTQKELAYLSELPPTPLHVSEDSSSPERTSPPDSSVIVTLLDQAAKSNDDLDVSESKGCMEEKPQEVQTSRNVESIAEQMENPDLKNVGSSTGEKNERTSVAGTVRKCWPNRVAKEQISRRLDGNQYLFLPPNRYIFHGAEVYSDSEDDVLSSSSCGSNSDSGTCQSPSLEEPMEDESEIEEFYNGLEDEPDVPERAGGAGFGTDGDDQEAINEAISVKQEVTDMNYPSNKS
In all, about 3,200 compounds were measured (“TSA(with NAD+) / Primary screening (TSA) / delta Tm (K)”: median about -0.04, highest 2% from about 0.37 on). What follows is part of a selection rich in the highest values, with near analogues and random picks from the rest.
Please use label 1 whenever TSA(with NAD+) / Primary screening (TSA) / delta Tm (K) is not below -0.03 K, and label 0 whenever it is.

compound	labelValue
Cc1nc(COc2ccc(C(=O)Nc3ccc(S(=O)(=O)Nc4cccc(F)c4)cc3)cc2)cs1	label 0
Cn1c(-c2ccccc2)c(C=O)c2ccccc21	label 0
O=C(O)c1ccc2[nH]c(S)nc2c1	label 0
CC(C)c1ccc(C(NC(=O)c2cccc(C(N)=O)c2)c2cccs2)cc1 (stereo not shown)	label 0
CCc1c(C)c(C#N)c2nc3ccccc3n2c1S	label 1
COc1ccc(CCn2c(C)cc(C(=O)COC(=O)C34CC5CC(CC(O)(C5)C3)C4)c2C)cc1	label 0
CC(C(=O)NC(c1ccccc1)C1CC1)n1cnc2ccccc21 (stereo not shown)	label 1
O=C(Oc1ccc2oc3ccccc3c2c1)c1ccc([N+](=O)[O-])cc1	label 0
Cc1sc2nc(CSc3ccccc3)nc(N3CCC(C(N)=O)CC3)c2c1C	label 1
NC(=O)NCc1ccc(C(=O)Nc2nc(-c3c[nH]c(C(N)=O)c3)cs2)cc1	label 1
O=C(O)c1cnc2c(c1)c(=O)[nH]c(=O)n2Cc1ccccc1	label 0
NC(=O)C1CN(c2nc(C3CC3)nc3sc4c(c23)CCCC4)CCO1 (stereo not shown)	label 0
NC(=O)c1cc(NC(=O)CC(c2ccccc2)c2ccccc2)cc(C(N)=O)c1	label 0
NC(=O)C1CCN(c2nc(CSc3ccccc3)nc3sc4c(c23)CCCC4)CC1	label 1
N#CC(C(=O)c1ccc(NS(=O)(=O)c2ccccc2)cc1)c1nc(-c2ccccn2)cs1 (stereo not shown)	label 1
O=C(Nc1ccc(Oc2ncccn2)cc1)c1ccc(S(=O)(=O)Nc2ccc(F)cc2)cc1	label 1
CC(N)c1nnn[nH]1 (stereo not shown)	label 0
C=CCOc1ccc(C(=O)C2=C(O)C(=O)N(CCN3CCOCC3)C2c2ccco2)cc1 (stereo not shown)	label 1
C[C@@H](N)CCO	label 0

###

molecular target: NAD-dependent deacetylase Sirtuin 1 (human); test: primary screen, delta tm; parameters: single well (n = 1, as 'the same TSA'); conditions: 10 µM
In all, about 3,200 compounds were measured (“TSA(with NAD+) / Primary screening (TSA) / delta Tm (K)”: median about -0.04, highest 2% from about 0.37 on). The list comes from a sample in which the highest values are over-represented; it also holds close analogues and randomly drawn compounds.
valueType: TSA(with NAD+) / Primary screening (TSA) / delta Tm (K)

compound	targetOrTestSystem	resultValue
COc1ccc(N(C)S(=O)(=O)c2cccc(C(=O)Nc3cccc(Br)c3)c2)cc1	NAD-dependent deacetylase Sirtuin 1 (human)	0.32
CNc1cc(C)nc2c(-c3ccccc3)c(C(F)(F)F)nn12	NAD-dependent deacetylase Sirtuin 1 (human)	-0.12
COc1ccc(-c2csc3nc(C)nc(N4CCN(C5CCS(=O)(=O)C5)CC4)c23)cc1OC (stereo not drawn)	NAD-dependent deacetylase Sirtuin 1 (human)	-0.09
CN(c1ccccc1)S(=O)(=O)c1cccc(C(=O)Nc2ccccc2-c2ccccc2)c1	NAD-dependent deacetylase Sirtuin 1 (human)	-0.02
Cc1ccc(N(C)S(=O)(=O)c2cccc(C(=O)Nc3nc4ccccc4[nH]3)c2)cc1	NAD-dependent deacetylase Sirtuin 1 (human)	-0.06
COc1ccc(N(C)S(=O)(=O)c2cccc(C(=O)Nc3ccc(Cl)cc3)c2)cc1	NAD-dependent deacetylase Sirtuin 1 (human)	0.86
COc1ccc(N(C)S(=O)(=O)c2cccc(C(=O)Nc3ccc(Br)cc3)c2)cc1	NAD-dependent deacetylase Sirtuin 1 (human)	1.36
COc1ccc(NC(=O)c2cccc(S(=O)(=O)N(C)c3ccc(OC)cc3)c2)cc1	NAD-dependent deacetylase Sirtuin 1 (human)	-0.02
CN(c1ccccc1)S(=O)(=O)c1cccc(C(=O)Nc2ccccc2-c2nc3ccccc3[nH]2)c1	NAD-dependent deacetylase Sirtuin 1 (human)	0.38
